System Tested: ITSN1-4 SH3 domain (aa 1070-1138) (Homo sapiens, UniProt Q15811)
Sequence (Q15811 1070-1138): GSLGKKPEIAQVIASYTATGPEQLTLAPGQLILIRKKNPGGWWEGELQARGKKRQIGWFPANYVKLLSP
Peptide text beside a SMILES is read from it.
Attribute Measured: Kd

As a guide, the following entries are already answered.
>>> recorded_measurement("CC(C)C[C@H](NC(=O)[C@@H](NC(=O)[C@@H](N)C(C)C)[C@@H](C)O)C(=O)N1CCC[C@H]1C(=O)N[C@@H](Cc1c[nH]cn1)C(=O)NCC(=O)N1CCC[C@H]1C(=O)N[C@@H](CCCNC(=N)N)C(=O)N[C@@H](CO)C(=O)N[C@@H](C)C(=O)O [Peptide P2] (H-VTLPHGPRSA-OH)")
"> 200 µM"
>>> recorded_measurement("CC(C)[C@H](NC(=O)[C@@H]1CCCN1C(=O)[C@@H]1CCCN1C(=O)[C@H](C)NC(=O)[C@H](CCC(=O)O)NC(=O)[C@H](CS)NC(=O)[C@@H](N)CCCNC(=N)N)C(=O)N1CCC[C@H]1C(=O)N1CCC[C@H]1C(=O)N[C@@H](CCCNC(=N)N)C(=O)N[C@@H](CCCNC(=N)N)C(=O)N[C@@H](CCC(=O)O)C(=O)N[C@@H](CCCNC(=N)N)C(=O)NCC(=O)O [RP2, reference compound] (H-RCEAPPVPPRRERG-OH)")
"> 200 µM"

Look up Kd: CC(C)C[C@H](NC(=O)[C@H](Cc1c[nH]cn1)NC(=O)[C@H](CC(C)C)NC(=O)[C@@H]1CCCN1C(=O)[C@H](CO)NC(=O)[C@H](CO)NC(=O)[C@@H](N)CO)C(=O)N[C@@H](CCC(N)=O)C(=O)N1CCC[C@H]1C(=O)N1CCC[C@H]1C(=O)N1CCC[C@H]1C(=O)N[C@@H](CC(C)C)C(=O)NCC(=O)N[C@@H](CCCCN)C(=O)N[C@@H](CCCCN)C(=O)O [Peptide P6] (H-SSSPLHLQPPPLGKK-OH; N-terminus and C-terminus assumed)
> 200 µM

Please give the measured Kd for this compound: CC[C@H](C)[C@H](NC(=O)[C@H](C)NC(=O)[C@@H]1CCCN1C(=O)[C@@H]1CCCN1C(=O)[C@H](CO)NC(=O)[C@H](CC(=O)O)NC(=O)[C@@H](N)CC(C)C)C(=O)N1CCC[C@H]1C(=O)N1CCC[C@H]1C(=O)N[C@@H](CCCNC(=N)N)C(=O)N[C@@H](CCC(N)=O)C(=O)N1CCC[C@H]1C(=O)N[C@H](C(=O)N[C@@H](CO)C(=O)N[C@@H](CCCCN)C(=O)O)[C@@H](C)O [Peptide P4] (H-LDSPPAIPPRQPTSK-OH)
> 200 µM

I'd like to know its Kd. The compound in question is CC(C)[C@H](N)C(=O)N1CCC[C@H]1C(=O)N[C@H](C(=O)N1CCC[C@H]1C(=O)N1CCC[C@H]1C(=O)N1CCC[C@H]1C(=O)N[C@H](C(=O)N1CCC[C@H]1C(=O)N1CCC[C@H]1C(=O)N[C@@H](CCCNC(=N)N)C(=O)N[C@@H](CCCNC(=N)N)C(=O)N[C@@H](CCCNC(=N)N)C(=O)O)C(C)C)C(C)C [RP1, reference compound]
> 200 µM

For CC[C@H](C)[C@H](NC(=O)[C@H](Cc1c[nH]cn1)NC(=O)[C@@H](N)CCC(N)=O)C(=O)N1CCC[C@H]1C(=O)N[C@@H](CCCCN)C(=O)N[C@@H](CC(C)C)C(=O)N1CCC[C@H]1C(=O)N1CCC[C@H]1C(=O)N[C@@H](CCCCN)C(=O)N[C@H](C(=O)N[C@@H](Cc1ccc(O)cc1)C(=O)O)[C@@H](C)O [Peptide P10] (H-QHIPKLPPKTY-OH; N-terminus and C-terminus assumed) , what is its reported Kd?
> 200 µM
